# Tested on: TK-10 renal
# procedure-details: NCI tumour cell line growth inhibition, 48 h
measurement-kind: TGI

Solved entries:
CCCCCCCCCCCCC1N=C(N)N2CCCC2=C1C(=O)OC (stereo unspecified)
> 48.7 µM
CC(=O)C(C(C)=O)[C@H]1OC(C)(C)O[C@H]1[C@H]1COC(C)(C)O1
> 100 µM
CC(=O)N[C@@H](Cc1ccc(O)cn1)C(=O)NC1CCCCC1
> 100 µM
CCOC(=O)c1csc(NC(=O)C(C)N2CCOCC2)n1 (stereo unspecified)
> 100 µM

Required: TGI, one value per molecule below.
1. COc1ccc(-c2cc(-c3ccccc3)nc(NCCNc3ccnc4cc(Cl)ccc34)n2)cc1
2. O=C(N/N=C/c1ccc(F)cc1)c1ccc(C(F)(F)F)nc1Nc1cccc(C(F)(F)F)c1
3. Nc1nc(=S)[nH]c(C(=O)Nc2nccs2)c1-c1ccccc1
4. C#CCOC(=O)C(=[N+]=[N-])C(=O)CC(C)C
5. O=C1CNN=C(Cn2nc(-c3ccccc3)c3ccccc3c2=O)N1

3.44 µM
3.86 µM
> 100 µM
> 10 µM
> 100 µM

Record TGI per entry; entries follow.
1. C#CC#CC#CC#CC#CC#CC#CC#CC[C@@H]1OC[C@@H](COC(=O)O[C@@H](C(=O)O[C@H]2C[C@@]3(O)[C@@H](OC(=O)c4ccccc4)[C@@H]4[C@]5(OC(C)=O)CO[C@@H]5C[C@H](O)[C@@]4(C)C(=O)[C@H](OC(C)=O)C(=C2C)C3(C)C)[C@@H](NC(=O)c2ccccc2)c2ccccc2)O1
2. CC(=O)O[C@H]1C(=O)[C@@]2(C)[C@H]([C@H](OC(=O)c3ccco3)[C@]3(O)C[C@H](OC(=O)[C@H](O)[C@@H](NC(=O)c4ccccc4)c4ccccc4)C(C)=C1C3(C)C)[C@]1(OC(C)=O)CO[C@@H]1C[C@@H]2O

1: > 33.3 µM; 2: > 25 µM

---

# Tested on: LOX IMVI melanoma
# procedure-details: NCI tumour cell line growth inhibition, 48 h
Give TGI for every item shown.

Worked examples, 5 molecules total:
CN(/N=C\c1ccc2ccccc2c1)C1=NCCCN1
21.6 µM
Fc1ccc(-c2nn3c(COc4ccc(Cl)cc4)nnc3s2)cc1Oc1ccccc1
> 56.3 µM
CCCCCCCCCCCCCCCC(=O)OCC1OC(n2cc(F)c(=O)[nH]c2=O)C(NC(=O)N(CCCl)N=O)C(O)C1O (stereo not drawn)
2.24 µM
O=C(CC1=Nc2nnc(-c3nnc4n3C(=O)C(CC(=O)C3CC3)=N4)n2C1=O)C1CC1
> 100 µM
O=C(NCc1ccccc1Cl)c1c(O)c2ccccc2[nH]c1=O
> 100 µM

Hi team, please reply with TGI for each item in this list.
1. CN(C)c1ccc(N=C2C=CC(=C(C#N)C#N)c3ccccc32)cc1
2. CC(NNC(=O)c1ccncc1)c1ccc(Cl)cc1Cl (stereo not drawn)
3. C/C(CC(=O)Nc1cccc([N+](=O)[O-])c1)=N\NC(=O)C[n+]1ccccc1
4. C=C1CC/C=C(\C)CC[C@H](C(=C)C)[C@@H](O)/C=C(/CO)CCC1O (stereo partly drawn)
5. COc1ccc(/C=N/NC(=S)Nc2cc(C)ccc2OC)cc1

1. 3.49 µM
2. > 100 µM
3. > 100 µM
4. > 100 µM
5. > 100 µM

List TGI for every entry below, keeping the order given.
1. CC[C@@]12CCC(=S)N(CCSc3ccccc3)[C@@H]1c1c(n(S(=O)(=O)c3ccc(OC)cc3)c3ccccc13)CC2
2. C#CC#CC#CC#CC#CC#CC#CC#CC[C@@H]1OC[C@@H](COC(=O)O[C@@H](C(=O)O[C@H]2C[C@@]3(O)[C@@H](OC(=O)c4ccccc4)[C@@H]4[C@]5(OC(C)=O)CO[C@@H]5C[C@H](O)[C@@]4(C)C(=O)[C@H](OC(C)=O)C(=C2C)C3(C)C)[C@@H](NC(=O)c2ccccc2)c2ccccc2)O1
3. NC(N)=NCCCC(NC(=O)c1c2ccccc2nc2ccccc12)C(=O)O (stereo not drawn)

["> 100 µM", "> 33.3 µM", "> 100 µM"]

---

# Test system: HT29 colon
# procedure-details: NCI tumour cell line growth inhibition, 48 h; in the data active = GI50 below about 0.43 µM; inactive = the rest
Lab note: assign the record to one of 1 (active), -1 (inactive)

GET /call?item= C=C(Cl)[C@@](Cl)(CBr)CC[C@@H](Br)C(C)(C)Cl returns the recorded outcome of this test. -1

Record lookup: outcome of this test for NC(N)=N/N=C(/c1ccccc1)c1ccccc1F ? -1

---

Would you kindly list TGI for each of these compounds?
# Tested on: MOLT-4 leukemia
# procedure-details: NCI tumour cell line growth inhibition, 48 h

Record excerpt, results attached:
OCCCCC#Cc1ccccc1C#Cc1ccc(C(F)(F)F)cc1
31.4 µM
CC1=C(CNO)C2=C(C)C3(CC3)[C@@](C)(O)C(=O)C2=C1
> 100 µM
CCOC(=O)C1CCC(=O)N1C(=O)c1ccc(Cl)cc1 (configuration not stated)
> 100 µM
C=C1CC/C=C(\C)CC[C@H](C(=C)C)[C@@H](O)/C=C(/CO)CCC1O (some centres not stated)
53.6 µM

Hi there! I need TGI for each item below, if you can.
1. CCCCCCCc1ccc(-c2nnc(N=Nc3ccc(OCCCCC)cc3)s2)s1
2. Cc1cc2occ(S(=O)(=O)NC(=O)Nc3ccc(Cl)cc3)c(=O)c2c(=O)o1
3. Cc1ccc(C2=C(Cl)C(=O)C(c3ccc(C)cc3)=C(Cl)C2=O)cc1

> 100 µM
> 100 µM
> 100 µM

---

# Tested on: ACHN renal
# procedure-details: NCI tumour cell line growth inhibition, 48 h; in the data active = GI50 below about 0.43 µM; inactive = the rest
Pick one and only one: active, inactive

COc1ccc(OCC(O)CN2CCN(c3ccc(Cl)cc3)CC2)cc1 (configuration not stated)
inactive

Entry CCCCCCCCCCCCOC1C(C(CC(=O)N2CCN(Cc3ccc4c(c3)OCO4)CC2)NS(=O)(=O)c2cc(Cl)cc(Cl)c2)OC2OC(C)(C)OC21 (configuration not stated) : call = ? inactive

Dear all, I need the recorded test outcome for Cn1ccnc1C(=O)/C=C/c1ccc(C(=O)Nc2c(F)c(F)c(F)c(F)c2F)cc1 , thank you. inactive

I would be grateful if you could indicate the recorded call for Fc1ccc(-c2nn3c(COc4ccc(Cl)cc4)nnc3s2)cc1Oc1ccccc1 . inactive

For COc1ccc(-c2cc(-c3ccccc3)nc(NCCNc3ccnc4cc(Cl)ccc34)n2)cc1 , which call appears in the assay record? inactive

Each compound tested received a call. Report the one for Cc1ccnc(Nc2ccc([N+](=O)[O-])c(NCCN3CCOCC3)n2)c1 . active

// param item: C=C1CC/C=C(\C)CC[C@H](C(=C)C)[C@@H](O)/C=C(/CO)CCC1O (some centres not stated) ; yields the recorded call inactive

---

# Test system: UO-31 renal
# procedure-details: NCI tumour cell line growth inhibition, 48 h; in the data active means GI50 below about 0.43 µM; inactive means the rest
Would you mind answering with one of these outcomes? active, inactive

Known results for compounds:
CCSc1ncc(Br)c(Sc2nc(N)nc3nc[nH]c23)n1
inactive
CNCc1cccc2c1OCCOCCOCCC(C)S(=O)(=O)c1ccc(cc1)-c1cnc(N)c(n1)C(=O)N2 (configuration not stated)
inactive
Cn1ccnc1C(=O)/C=C/c1ccc(C(=O)Nc2c(F)c(F)c(F)c(F)c2F)cc1
inactive
c1cncc(C2ONC3=NCCN32)c1 (configuration not stated)
inactive
COC(=O)[C@H](Cc1cn(C)cn1)NC(=O)[C@@H](NC(=O)Nc1cc(C(F)(F)F)cc(C(F)(F)F)c1)C(C)C
inactive
COc1cc2cc3c(c(O)c2c(O)c1-c1c(OC)cc2cc4c(c(O)c2c1O)C(=O)O[C@H](C)C4)C(=O)O[C@H](C)C3
inactive
COC(=O)[C@]1(C)CCC[C@]2(C)[C@@H]1CCC13C[C@@H](C=CO1)[C@@H](C)CC32O (some centres not stated)
inactive
C=C(Cn1c2ccccc2c(=O)c2ccccc21)c1ccc(C(=O)Nc2ccccc2N)cc1
inactive

Could you please tell me the result logged for COc1cccc(C2C(C#N)=C(N)Oc3cc4c(cc32)OCO4)c1 (configuration not stated) in this assay? active

Record request — test call for N#CCC1(n2cc(-c3ncnc4[nH]ccc34)cn2)CN(C2CCN(C(=O)c3ccnc(C(F)(F)F)c3F)CC2)C1 inactive

I would be grateful if you could indicate the recorded call for COc1c(O)c2c3c(c1OC)-c1ccccc1CC3N(S(=O)(=O)c1ccc(C)cc1)CC2 (configuration not stated) . inactive

So what was the verdict on CC(=O)[O-].[Mn+3].[O-]c1ccc(Cl)cc1C=NCCN=Cc1cc(Cl)ccc1[O-] in this test? inactive

---

# Tested on: HL-60(TB) leukemia
# procedure-details: NCI tumour cell line growth inhibition, 48 h
Please note: Y applies when TGI is 6 µM or greater, and N applies otherwise.

Study these solved cases before continuing.
O=c1cccccc1[O-].O=c1cccccc1[O-].O=c1cccccc1[O-].[Sm+3]
Y
N/C(=N\C(N)=N\c1nc2ccccc2s1)c1cnccn1
Y
CNCc1cccc2c1OCCOCCOCCC(C)S(=O)(=O)c1ccc(cc1)-c1cnc(N)c(n1)C(=O)N2 (stereo not given)
N

Entry COc1ccc(C(=O)O/N=C2/CCCCC2CN(C)C)cc1 (stereo not given) : is its TGI no less than 6 µM? Y

Could you verify whether the entry CC1=C(CNO)C2=C(C)C3(CC3)[C@@](C)(O)C(=O)C2=C1 shows TGI of no less than 6 µM? Y

Please check the record CN(C)C(=O)Oc1ccc(C(=S)Nc2ccccc2)cc1 and state if its TGI is at or above 6 µM. Y
